# TESTED_TARGET: human recombinant HDAC6 (Homo sapiens)
# Construct: purchased Calbiochem 382180
# ASSAY_DETAILS: HDAC6 enzyme activity inhibition test (HDAC Fluorometric Drug Discovery Kit)
# Format: biochemical
# ASSAY_CONTEXT: HDAC6 over HDAC1
READOUT: HDAC6 selectivity (fold)

(A) FC(F)c1nnc(-c2ccc(Cn3nc(-c4cccc(CN5CCCCC5)c4)oc3=S)nc2)o1
(B) FC(F)c1nnc(-c2ccc(Cn3nc(-c4cccc(N5CCN(C6CCCC6)CC5)n4)oc3=S)nc2)o1
Which is greater in HDAC6 selectivity (fold), the first item A or the second item B ? Could you answer with the label of the item you picked? B
(B: 1188 fold, A: 556 fold)

(1) CC(C)N1CCC(c2cc(-c3nn(Cc4ccc(-c5nnc(C(F)F)o5)cn4)c(=S)o3)ccc2F)CC1
(2) O=c1oc(-c2ccc(N3CCNCC3)cc2)nn1Cc1ccc(-c2nnc(C(F)F)o2)cn1
Of the two listed items, 1 and 2 , which carries the larger HDAC6 selectivity (fold) figure? Refer to your chosen item by its label in the answer. 2
(2: 653 fold, 1: 429 fold)

(I) CCN(CC)Cc1ccc(-c2nn(Cc3ncc(-c4nnc(C(F)F)o4)cc3F)c(=S)o2)s1
(II) CNCc1ccc(-c2nn(Cc3ncc(-c4nnc(C(F)F)o4)cc3F)c(=S)o2)cc1
Which value of HDAC6 selectivity (fold) is greater, the one for I or the one for II ? Refer to your chosen entry by its label in the reply. II
(II: 1475 fold, I: 457 fold)

* * *

# TESTED_TARGET: human recombinant HDAC6 (Homo sapiens, UniProt Q9UBN7)
# Construct: purchased Calbiochem 382180
# Sequence (Q9UBN7 1-1215): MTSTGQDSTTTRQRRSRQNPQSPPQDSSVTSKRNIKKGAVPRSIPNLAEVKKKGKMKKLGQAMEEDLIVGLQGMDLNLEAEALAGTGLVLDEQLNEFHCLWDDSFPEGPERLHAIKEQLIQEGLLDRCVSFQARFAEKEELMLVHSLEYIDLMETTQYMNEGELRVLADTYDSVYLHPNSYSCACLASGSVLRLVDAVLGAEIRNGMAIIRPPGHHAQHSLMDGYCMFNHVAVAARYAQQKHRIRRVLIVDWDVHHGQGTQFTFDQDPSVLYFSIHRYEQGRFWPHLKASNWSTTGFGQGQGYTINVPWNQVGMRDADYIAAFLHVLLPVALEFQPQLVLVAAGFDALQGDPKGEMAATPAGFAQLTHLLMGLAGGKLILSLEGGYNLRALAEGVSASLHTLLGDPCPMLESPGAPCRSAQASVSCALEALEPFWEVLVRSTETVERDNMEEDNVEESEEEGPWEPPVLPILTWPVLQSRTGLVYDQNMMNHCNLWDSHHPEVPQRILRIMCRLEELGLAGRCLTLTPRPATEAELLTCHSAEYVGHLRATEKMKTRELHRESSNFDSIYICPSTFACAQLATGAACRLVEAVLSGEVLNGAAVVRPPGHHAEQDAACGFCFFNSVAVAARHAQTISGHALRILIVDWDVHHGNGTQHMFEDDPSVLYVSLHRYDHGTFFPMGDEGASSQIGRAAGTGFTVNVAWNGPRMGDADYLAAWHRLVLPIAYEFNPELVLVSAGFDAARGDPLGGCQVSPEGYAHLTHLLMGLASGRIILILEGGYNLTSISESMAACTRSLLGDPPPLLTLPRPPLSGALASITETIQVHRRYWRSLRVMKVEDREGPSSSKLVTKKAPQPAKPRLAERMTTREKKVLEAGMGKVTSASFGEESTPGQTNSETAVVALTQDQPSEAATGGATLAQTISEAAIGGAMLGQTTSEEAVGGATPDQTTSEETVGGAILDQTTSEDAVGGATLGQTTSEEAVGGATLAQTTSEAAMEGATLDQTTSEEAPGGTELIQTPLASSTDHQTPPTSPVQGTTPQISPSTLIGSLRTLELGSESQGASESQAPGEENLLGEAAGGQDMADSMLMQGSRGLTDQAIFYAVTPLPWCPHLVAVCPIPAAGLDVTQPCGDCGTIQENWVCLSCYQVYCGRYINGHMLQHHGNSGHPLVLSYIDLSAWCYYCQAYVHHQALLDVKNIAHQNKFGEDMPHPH
# ASSAY_DETAILS: HDAC6 enzyme activity inhibition test (HDAC Fluorometric Drug Discovery Kit)
# Format: biochemical
# ASSAY_CONTEXT: HDAC6 over HDAC1
READOUT: HDAC6 selectivity (fold)

Below are worked cases with known answers.
{"MOL": "CC(C)N1CCc2cc(-c3nn(Cc4ncc(-c5nnc(C(F)F)o5)cc4F)c(=S)o3)ccc2C1", "READING_UNIT": "fold", "VALUE_MEASURED": 840}
{"MOL": "O=c1oc(-c2ccc3ccccc3n2)nn1Cc1ccc(-c2nnc(C(F)F)o2)cn1", "READING_UNIT": "fold", "VALUE_MEASURED": 975}
{"MOL": "Fc1cc(-c2nnc(C(F)F)o2)cnc1Cn1nc(-c2ccc3c(c2)CCN(C2CCC2)C3)oc1=S", "READING_UNIT": "fold", "VALUE_MEASURED": 1075}
{"MOL": "O=c1oc(-c2cccc3[nH]ccc23)nn1Cc1ncc(-c2nnc(C(F)F)o2)cc1F", "READING_UNIT": "fold", "VALUE_MEASURED": 643}
{"MOL": "CCN(CC)Cc1cccc(-c2nn(Cc3ncc(-c4nnc(C(F)F)o4)cc3F)c(=S)o2)c1", "READING_UNIT": "fold", "VALUE_MEASURED": 630}
{"MOL": "Fc1c(-c2nn(Cc3ccc(-c4nnc(C(F)F)o4)cn3)c(=S)o2)cccc1C1CCN(C2CCC2)CC1", "READING_UNIT": "fold", "VALUE_MEASURED": 576}

(a) CN(C)Cc1cccc(-c2nn(Cc3ncc(-c4nnc(C(F)F)o4)cc3F)c(=S)o2)c1
(b) CN1CCN(c2cccc(-c3nn(Cc4ccc(-c5nnc(C(F)F)o5)cn4)c(=S)o3)c2)CC1
Looking at recorded values for HDAC6 selectivity (fold), does a or b come in lower? Please indicate the selected item by its label. a

Where do these numbers come from? They come from patent US20260327214A1.
